# Target Desc: GTPase KRas (Homo sapiens, UniProt P01116)
# Sequence (P01116 whole entry G12V): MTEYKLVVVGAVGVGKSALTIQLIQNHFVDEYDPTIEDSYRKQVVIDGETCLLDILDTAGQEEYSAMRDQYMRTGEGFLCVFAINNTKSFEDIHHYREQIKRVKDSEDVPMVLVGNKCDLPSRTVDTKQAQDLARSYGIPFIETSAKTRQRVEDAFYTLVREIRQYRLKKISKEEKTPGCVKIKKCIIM
# Assay Explanation: Inhibition of GDP bound KRAS G12V mutant (unknown origin)
Readout Label: pIC50
Reminder that pIC50 means the negative base-10 logarithm of the concentration expressed in mol/L.

Task: Field: pIC50 (GTPase KRas (Homo sapiens, UniProt P01116)). Entry: C#Cc1c(F)ccc2cc(O)cc(-c3ncc4c(N(C)[C@H]5C[C@@H]5F)nc(OCC56CCCN5CC(=C)C6)nc4c3F)c12 (stereo partly specified)
Output: 9.43
